Tested on: Plasmodium falciparum
Experiment: GSK_TCMDC: Inhibition of Plasmodium falciparum 3D7 in whole red blood cells, using parasite LDH activity as an index of growth. Test compounds present at 2uM
Type: functional
Measured Inhibition of individual entries
Note: unit % is implicit; provide only the numeric part.

Here is how some compounds turned out for Inhibition.
Compound: O=CO.c1ccc(-c2ccc(CNCCCNc3nc4ccccc4[nH]3)cc2)cc1
Unit Annotation: %
Value Measured: 95

Compound: CC1CCCCC1N(C)C1CCN(CCCNC(=O)C=Cc2ccccc2Cl)CC1 (stereo not drawn)
Unit Annotation: %
Value Measured: 100

Compound: c1ccc(C23NC(=Nc4nc5ccccc5[nH]4)NC2(c2ccccc2)NC(=Nc2nc4ccccc4[nH]2)N3)cc1 (stereo not drawn)
Unit Annotation: %
Value Measured: 97

Q) Give Inhibition (Plasmodium falciparum) of the following compound: "CN(C)C(=O)CC(=O)NCc1cccc(Cl)c1"
A) 99

Q) Please tell me: Inhibition of O=C(CCC1CCCC1)N(Cc1ccc(-c2ccc(CNCCc3ccccn3)cc2)cc1)CC1CCCCN1.O=C(O)C(F)(F)F (stereo not drawn) , system Plasmodium falciparum?
A) 95

Q) Hello, I am looking for reported Inhibition with Plasmodium falciparum for "O=C(/C=C/c1ccc(Cl)c(Cl)c1)N1CCC(CCN2CCC(c3nc4cc(O)ccc4[nH]3)CC2)CC1" . Could you help?
A) 100

----------
Test system: HepG2
Experiment: GSK_TCMDC: Percent inhibition of human HepG2 cell line. Test compounds present at 10uM.
Format: functional
As shown below, each of these compounds has a reported Inhibition value.
Field: numeric (%). Do not append units.

Compound: O=C(Nc1cccc(-c2nn3ncccc3c2-c2ccnc(Nc3cccc(C(F)(F)F)c3)n2)c1)c1c(F)cccc1F
Unit Annotation: %
Value Measured: 49
--
Compound: NCC1CCCN1Cc1cccc(-c2ccc(-c3nc4cc(C(F)(F)F)ccc4[nH]3)cc2)c1.O=C(O)C(F)(F)F (centres undefined)
Unit Annotation: %
Value Measured: 20
--
Compound: CC(C)CNCc1cccc(-c2ccccc2CN(C(=O)NCCc2ccccc2)C2CCN(Cc3ccccc3)CC2)c1.O=C(O)C(F)(F)F
Unit Annotation: %
Value Measured: 42

Now, please, on to the next compound.
Q) Reported Inhibition for N#Cc1cccc(Nc2nccc(NCC(O)c3ccccc3C(F)(F)F)n2)c1 (centres undefined) : what is it?
A) 36

----------
Reported Inhibition values for a set of molecules
System: Plasmodium falciparum
Assay: GSK_TCMDC: Inhibition of Plasmodium falciparum 3D7 in whole red blood cells, using parasite LDH activity as an index of growth. Test compounds present at 2uM
Type: functional
# output: bare number, implied unit %

Q) Param item = "O=C(Nc1ccc([N+](=O)[O-])cc1)Nc1cc(OCC(F)(F)F)cc(OCC(F)(F)F)c1" ; retrieve measured Inhibition.
A) 100

Q) # get_value(readout='Inhibition', item= "CN1CCOc2ccc(Nc3nnc(-c4cccc(-c5cccnc5)c4)o3)cc2C1" )
A) 100

Q) What value of measured Inhibition is listed for "O=C(NCc1ccc(F)cc1)c1cnc(N2CCN(c3ccncc3)CC2)c(Cl)c1.O=C(O)C(F)(F)F" ?
A) 98

Q) Which Inhibition is reported for this molecule? "CC(C)c1ccc(NC(=O)N2CCc3ccc(OCCN(C(C)C)C(C)C)cc32)c(Br)c1.O=C(O)C(F)(F)F"
A) 86

Q) Form field: reported Inhibition of "CCCCCCc1ncc(-c2cc3cc(O)c(-c4ccccc4)cc3oc2=O)s1"
A) 90

----------
Examples of molecules with documented Inhibition follow.
Tested on: Plasmodium falciparum
Test: GSK_TCMDC: Inhibition of Plasmodium falciparum 3D7 in whole red blood cells, using parasite LDH activity as an index of growth. Test compounds present at 2uM
Assay type: functional
Value expressed in %; do not type the unit.

Molecule: Cc1n[nH]c2cc(Nc3ccnc(Nc4cccc(CN5CCOCC5)c4)n3)ccc12
Unit Annotation: %
Inhibition: 83

Q) Look at this molecule and give its reported Inhibition. O=C(Cc1ccsc1)NCC(c1ccccc1Cl)c1c[nH]c2ccccc12 (stereo unspecified)
A) 86

Q) Entry under review: Br.CC1(C)N=C(N)N=C(N)N1OCC1COc2ccccc2O1 (stereo unspecified) . Reported Inhibition?
A) 96

Q) What value of Inhibition has been recorded for this entry: CCOc1ccc(C(C)NC(=O)Cc2ccccc2F)cc1OCC (stereo unspecified)
A) 96

Q) Could you share which Inhibition value was measured for "Nc1ncc(Cc2ccc3c(ccc4ccccc43)c2)c(N)n1" ?
A) 97

Q) What does the data say about its Inhibition? Entry: "Br.Cc1ccccc1OCCCON1C(=N)N=C(N)NC1(C)C"
A) 95

----------
Test system: Plasmodium falciparum
Assay: GSK_TCMDC: Inhibition of Plasmodium falciparum Dd2 in whole red blood cells, using parasite LDH activity as an index of growth. Test compounds present at 2uM
Format: functional
Response field class: string, computed from recorded Inhibition by ranges small value: < 40%; mid value: ≥ 40% and < 80%; large value: ≥ 80%

Compound: COc1ccc2nccc([C@@H](O)CN3CCC(NCc4cc5cccc(O)c5[nH]4)CC3)c2c1.O=C(O)C(=O)O
Label Value: small value

Compound: CN1CCN(Cc2ccc(-c3cc4c(Nc5ccc(OCc6cccc(F)c6)c(Cl)c5)ncnc4s3)[nH]2)CC1
Label Value: large value

Compound: CC(C)COc1ccc(Cl)cc1Cc1ccc(-c2nc3ccc(F)cc3[nH]2)o1
Label Value: mid value

Compound: Cl.Fc1cc(CN2CCCC2)ccc1OCCCN1CCN(c2cccc(Cl)c2Cl)CC1
Label Value: small value

Compound: CCOc1cc(C(=O)N[C@@H](Cc2ccccc2)[C@H](O)CNCc2cc(OC)cc(OC)c2)cc(N2CCCCS2(=O)=O)c1.Cl
Label Value: large value

Q) Band for the recorded Inhibition of "NC1=NC(c2ccccc2)(c2ccccc2)C(=O)N1Cc1ccccc1Br.O=CO" ?
A) small value

Q) Kindly state the category for this compound: CCCCCN1CCC(NC(=O)c2ccc(C(=O)Nc3ccc(C(C)C)cc3)cc2)C1.O=C(O)C(F)(F)F (configuration not stated)
A) small value

Q) For this compound, which bin applies? "Cc1ccc2sc(N(CCCn3ccnc3)C(=O)c3ccco3)nc2c1C.Cl"
A) large value

Q) Could you place "Cc1cccc2nc(-c3cccc(-c4cccc(CNCc5cnn(-c6ccccc6)n5)c4)c3)[nH]c12.O=C(O)C(F)(F)F" in its proper category? Many thanks.
A) small value

----------
Tested on: HepG2
Assay: GSK_TCMDC: Percent inhibition of human HepG2 cell line. Test compounds present at 10uM.
Assay type: functional
Grouping rule (Inhibition): lower bin (below 2%), middle bin (2% to below 30%), upper bin (30% or more)

Worked cases, answers included:
Compound: CCCCCN1CCC(NC(=O)c2ccc(C(=O)Nc3ccc(C(C)C)cc3)cc2)C1.O=C(O)C(F)(F)F (stereo unspecified)
Label Value: upper bin
//
Compound: CC(C)(C)c1nn(-c2ccccc2)c2[nH]c(=O)c(CNCCc3ccccc3)cc12
Label Value: lower bin
//
Compound: COc1cc(C=NN=c2cc(C)[nH]c3ccccc23)cc(OC)c1OC
Label Value: middle bin
//
Compound: CCN(CC)CCN1C(=O)c2oc3ccc(Cl)cc3c(=O)c2C1c1ccc(SC)cc1 (stereo unspecified)
Label Value: lower bin
//
Compound: CC(C)c1ccc(-c2nc3cc(Cl)cnc3[nH]2)cc1
Label Value: middle bin

Q) Which band does "Cc1cc(N[C@@H](Cc2ccccc2)C(=O)NCCOc2ccccc2)nc(NCCOc2ccccc2)n1.O=C(O)C(F)(F)F" fall in?
A) lower bin

----------
Tested on: Plasmodium falciparum
Assay: GSK_TCMDC: Inhibition of Plasmodium falciparum 3D7 in whole red blood cells, using parasite LDH activity as an index of growth. Test compounds present at 2uM
Assay type: functional
Each item that follows carries a reported Inhibition.
# output: bare number, implied unit %

Compound: CCN(CC)C(=O)c1cccc(C=Cc2ccc(-c3c(C)[nH]c(C)c(Cl)c3=O)cc2)c1
Value Measured: 96

Compound: CC(=O)Nc1nc(C(=O)Nc2cccc(-c3ccc(-c4nc5cccc(C)c5[nH]4)s3)c2)cs1
Value Measured: 100

Compound: CCCCCN1CCC(NC(=O)c2ccc(C(=O)Nc3ccc(C(C)C)cc3)cc2)C1.O=C(O)C(F)(F)F (centres undefined)
Value Measured: 95

Compound: COc1ccc2nccc([C@@H](O)CN3CCC(NC(=O)C(c4cccs4)N4CCN(c5ccc(F)cc5)CC4)CC3)c2c1 (some centres undefined)
Value Measured: 97

Q) Field request: Inhibition | item: "COc1c(F)ccc2ncc(Cl)c(CCN3CCC(NCc4ccc5c(n4)NC(=O)CS5)CC3)c12.Cl"
A) 98

Q) Which Inhibition value belongs to "Cc1ccc(F)cc1S(=O)(=O)Nc1cccc(CCN2CCC(N3CCCCC3)CC2)c1" ?
A) 96

Q) Which Inhibition reading was recorded for the compound "CN(C)c1ccc(NC(=O)Nc2ccnc3ccccc23)cc1Br.Cl" ?
A) 98

Q) What does the data say about its Inhibition? Entry: COc1cccc(C(=O)NC(C=Cc2ccccc2)c2cc(Cl)c3cccnc3c2O)c1 (centres undefined)
A) 95

Q) Inhibition lookup needed for "COc1ccccc1C1CCN(CCCCNC(=O)c2ccc(/C=C/c3cc(Cl)cc(Cl)c3)cc2)CC1" , thanks.
A) 96

These entries and their values trace back to ChEMBL document CHEMBL1157539.
